Assay: Log P by HPLC on reversed phase columns (EEC directive 79/831 Annex V.A8; methods [a], [b], [c])
Format: physicochemical
Conditions: reversed phase HPLC column; method [a]: LC-UV, acidic range, 0.1% formic acid in water and acetonitrile as eluent (linear gradient from 10% to 95% acetonitrile)
assay readout: chromatographic logP

1. N#Cc1cncn1CC(=O)c1cnc(Oc2ccc(C(F)(F)F)cc2)cc1Cl; 3.29
2. N#Cc1cncn1CC(=O)c1cccc(Cl)c1F; 2.02
3. O=C(Cn1cncc1Cl)c1ccc(Oc2ccc(Br)cn2)cc1Cl; 2.59

----------
Entries annotated with measured LogP
Test: Log P by HPLC on reversed phase columns (EEC directive 79/831 Annex V.A8; methods [a], [b], [c])
Assay type: physicochemical
assay readout: LogP

1) N#Cc1cncn1CC(O)(CC1CC1)c1cc(F)c(F)c(Cl)c1 (centres unmarked) [I-492]; 2.71^[a]
2) OC(Cn1cncc1F)c1cnc(Oc2ccc(Cl)cc2)cc1C(F)(F)F (centres unmarked) [I-119]; 2.23^[a]
3) N#Cc1cncn1CC(O)(c1ccc(F)c(Br)c1)C1(F)CC1 (centres unmarked) [I-470]; 2.40^[a]
4) CC(C)(C)CC(O)(Cn1cncc1C#N)c1ccc(C(F)(F)F)cc1 (centres unmarked) [I-272]; 3.35^[a]
5) CC(O)(Cn1cncc1C#N)c1cnc(Oc2ccc(Cl)cc2F)cc1C(F)(F)F (centres unmarked) [I-233]; 3.29^[a]
6) Cc1c(Cl)ccc(C(O)(Cn2cncc2C#N)C2(F)CC2)c1F (centres unmarked) [I-685]; 2.63^[a]
7) CC(O)(Cn1cncc1Br)c1ccc(Oc2ccc(I)cc2)cc1Cl (centres unmarked) [I-172]; 3.17^[a]
8) CC(C)CC(O)(Cn1cncc1C#N)c1ccc(Cl)cc1Cl (centres unmarked) [I-303]; 3.39^[a]
9) N#Cc1cncn1CC(O)(C#CC1CCc2ccccc21)C1(Cl)CC1 (centres unmarked) [I-602]; 2.92^[a]
10) N#Cc1cncn1CC(O)(CC1CC1)c1cc(F)cc(F)c1 (centres unmarked) [I-502]; 2.29^[a]
11) CCCOC(Cn1cncc1C#N)c1ccc(Oc2ccc(Cl)cc2)cc1C(F)(F)F (centres unmarked) [I-85]; 4.92^[a]
12) COc1ccc(C(O)(Cn2cncc2C#N)CC(C)(C)C)c(Cl)c1 (centres unmarked) [I-367]; 3.21^[a]
13) CCCCCCC(O)(Cn1cncc1C#N)C1(F)CC1 (centres unmarked) [I-399]; 3.00^[a]
14) N#Cc1cncn1CC(O)(CC1CC1)c1cc(F)ccc1F (centres unmarked) [I-515]; 2.18^[a]
15) C=C(C)CC(O)(Cn1cncc1C#N)C1(Cl)CC1 (centres unmarked) [I-675]; 2.35^[a]
16) N#Cc1cncn1CC(O)(c1cccc(F)c1Cl)C1(Cl)CC1 (centres unmarked) [I-557]; 2.25^[a]
17) N#Cc1cncn1CC(O)c1ccc(Oc2ccc(Cl)cc2)cc1Cl (centres unmarked) [I-22]; 3.19^[a]
18) OC(Cn1cncc1F)c1ccc(Oc2ccc(C(F)(F)F)nc2)nc1C(F)(F)F (centres unmarked) [I-142]; 1.98^[a]
19) Cc1ccc(C)c(C#CC(O)(Cn2cncc2C#N)C2(Cl)CC2)c1 (centres unmarked) [I-298]; 3.09^[a]
20) N#Cc1cncn1CC(O)(c1ccc(Br)cc1F)C1(F)CC1 (centres unmarked) [I-403]; 2.43^[a]
21) N#Cc1cncn1CC(O)(CC1CC1)c1cc(F)c(Cl)c(Cl)c1 (centres unmarked) [I-530]; 2.97^[a]
22) N#Cc1cncn1CC(O)(c1cccc(F)c1F)C1(F)CC1 (centres unmarked) [I-524]; 2.02^[a]
23) CC(=O)c1cncn1CC(C)(O)c1ccc(Oc2ccc(C(C)C)cc2)nc1C(F)(F)F (centres unmarked) [I-299]; 3.33^[a]
24) CC(C)(C)C(O)(Cn1cncc1C#N)c1ccc(Cl)c(Cl)c1 (centres unmarked) [I-456]; 3.16^[a]
25) CC(C)(C)C(O)(Cn1cncc1C#N)c1cc(Cl)cc(Cl)c1 (centres unmarked) [I-463]; 3.22^[a]
26) N#Cc1cncn1CC(O)(CC1CC1)c1cc(Cl)c(F)c(Cl)c1 (centres unmarked) [I-493]; 2.95^[a]
27) CC(C)CCCC(O)(Cn1cncc1C#N)C1(F)CC1 (centres unmarked) [I-671]; 2.82^[a]
28) N#Cc1cncn1CC(O)(c1ccccc1C(F)(F)F)C1(Cl)CC1 (centres unmarked) [I-344]; 2.35^[a]
29) CC(C)(C)CC(O)(Cn1cncc1C#N)c1ccc(Cl)cc1F (centres unmarked) [I-260]; 3.44^[a]
30) CCCCC(O)(Cn1cncc1C#N)c1ccc(OC(F)(F)F)cc1 (centres unmarked) [I-265]; 3.25^[a]
31) Cc1ccc(C#CC(O)(Cn2cncc2C#N)C2(Cl)CC2)cc1 (centres unmarked) [I-293]; 2.82^[a]
32) N#Cc1cncn1CC(O)(c1cc(Br)c(F)cc1F)C1(Cl)CC1 (centres unmarked) [I-582]; 2.66^[a]
33) N#Cc1cncn1CC(O)(c1cc(Cl)cc(F)c1F)C1(Cl)CC1 (centres unmarked) [I-611]; 2.54^[a]
34) CC(C)C(O)(Cn1cncc1C#N)c1ccc(Br)cc1Cl (centres unmarked) [I-422]; 3.02^[a]
35) N#Cc1cncn1CC(O)(CC1CCCCC1)c1ccc(F)cc1F (centres unmarked) [I-466]; 3.44^[a]
36) CCCC(O)(Cn1cncc1C#N)c1ccc(Cl)cc1F (centres unmarked) [I-401]; 2.78^[a]
37) CC(C)(C)C(O)(Cn1cncc1C#N)c1cc(F)cc(Cl)c1 (centres unmarked) [I-495]; 2.88^[a]
38) N#Cc1cncn1CC(O)c1cnc(Oc2ccc(C(F)F)cc2)cc1C(F)(F)F (centres unmarked) [I-115]; 2.80^[a]

----------
Test: Log P by HPLC on reversed phase columns (EEC directive 79/831 Annex V.A8; methods [a], [b], [c])
Assay type: physicochemical
assay readout: LogP

1. CC(O)(Cn1cncc1C#N)c1ccc(Oc2ccc(Cl)cc2)cc1Br (centres unmarked); 3.50^[a]
2. COC(Cn1cncc1C#N)c1ccc(Oc2ccc(C(F)(F)F)cc2)cc1C(F)(F)F (centres unmarked); 4.27^[a]
3. CC(O)(Cn1cncc1Cl)c1cnc(Oc2ccc(Cl)cc2)cc1Br (centres unmarked); 2.48^[a]
4. C[Si](C)(C)CCC(O)(Cn1cncc1C(F)(F)F)C1(Cl)CC1 (centres unmarked); 4.24^[a]
5. CC(O)(Cn1cncc1F)c1ccc(Oc2ccc(Cl)cc2)nc1C(F)(F)F (centres unmarked); 2.32^[a]
6. CC(C)(C)c1ccc(C#CC(O)(Cn2cncc2C#N)C2(F)CC2)cc1 (centres unmarked); 3.39^[a]
7. OC(Cn1cncc1Cl)c1ccc(Oc2ccc(C(F)(F)F)cc2)cc1C(F)(F)F (centres unmarked); 3.00^[a]
8. CC(=O)OC(Cn1cncc1C#N)c1ccc(Oc2ccc(Cl)cc2)cc1C(F)(F)F (centres unmarked); 3.7^8[a]
9. OC(Cn1cncc1Cl)c1ccc(Oc2ccc(Cl)cn2)cc1Cl (centres unmarked); 1.98^[a]
10. CC(C)(C)CC(O)(Cn1cncc1C#N)c1cccc(F)c1Cl (centres unmarked); 3.15^[a]
11. OC(Cn1cncc1Cl)c1ccc(Oc2ccc(Cl)cc2)nc1C(F)(F)F (centres unmarked); 2.51^[a]

----------
Test: Log P by HPLC on reversed phase columns (EEC directive 79/831 Annex V.A8; methods [a], [b], [c])
Assay type: physicochemical
assay readout: LogP

1) N#Cc1cncn1CC(O)c1ccc(Oc2ccc(S(F)(F)(F)(F)F)cc2)nc1Cl (stereo not drawn); 3.15^[a]
2) N#Cc1cncn1CC(O)(C#CC1(c2ccccc2)CC1)C1(Cl)CC1 (stereo not drawn); 2.90^[a]
3) N#Cc1cncn1CC(O)c1cnc(Oc2ccc(S(F)(F)(F)(F)F)cc2)cc1C(F)(F)F (stereo not drawn); 3.44^[a]
4) N#Cc1cncn1CC(O)(c1ccc(Cl)nc1Cl)C1(Cl)CC1 (stereo not drawn); 2.12^[a]
5) N#Cc1cncn1CC(O)(c1ccc(Cl)cc1F)C1CCC1 (stereo not drawn); 2.86^[a]
6) CC(O)(Cn1cncc1F)c1cnc(Oc2ccc(Cl)cc2)cc1C(F)(F)F (stereo not drawn); 2.30^[a]
7) CCCC(O)(Cn1cncc1C#N)c1ccccc1C(F)(F)F (stereo not drawn); 2.66^[a]
8) N#Cc1cncn1CC(O)(CC1CC1)c1cc(Cl)ccc1F (stereo not drawn); 2.43^[a]
9) CC(O)(Cn1cncc1F)c1ccc(Oc2ccc(Cl)cc2)cc1Cl (stereo not drawn); 2.34^[a]
10) N#Cc1cncn1CC(O)(CC1CC1)c1cnc(Cl)cc1Cl (stereo not drawn); 2.07^[a]
11) N#Cc1cncn1CC(O)(c1cc(F)cc(Br)c1)C1(F)CC1 (stereo not drawn); 2.51^[a]
12) N#Cc1cncn1CC(O)(c1ccc(F)cc1F)C1(Cl)CC1 (stereo not drawn); 2.28^[a]
